- SYSTEM TESTED: DNA-dependent protein kinase catalytic subunit (Homo sapiens)
- Sequence (P78527 whole entry): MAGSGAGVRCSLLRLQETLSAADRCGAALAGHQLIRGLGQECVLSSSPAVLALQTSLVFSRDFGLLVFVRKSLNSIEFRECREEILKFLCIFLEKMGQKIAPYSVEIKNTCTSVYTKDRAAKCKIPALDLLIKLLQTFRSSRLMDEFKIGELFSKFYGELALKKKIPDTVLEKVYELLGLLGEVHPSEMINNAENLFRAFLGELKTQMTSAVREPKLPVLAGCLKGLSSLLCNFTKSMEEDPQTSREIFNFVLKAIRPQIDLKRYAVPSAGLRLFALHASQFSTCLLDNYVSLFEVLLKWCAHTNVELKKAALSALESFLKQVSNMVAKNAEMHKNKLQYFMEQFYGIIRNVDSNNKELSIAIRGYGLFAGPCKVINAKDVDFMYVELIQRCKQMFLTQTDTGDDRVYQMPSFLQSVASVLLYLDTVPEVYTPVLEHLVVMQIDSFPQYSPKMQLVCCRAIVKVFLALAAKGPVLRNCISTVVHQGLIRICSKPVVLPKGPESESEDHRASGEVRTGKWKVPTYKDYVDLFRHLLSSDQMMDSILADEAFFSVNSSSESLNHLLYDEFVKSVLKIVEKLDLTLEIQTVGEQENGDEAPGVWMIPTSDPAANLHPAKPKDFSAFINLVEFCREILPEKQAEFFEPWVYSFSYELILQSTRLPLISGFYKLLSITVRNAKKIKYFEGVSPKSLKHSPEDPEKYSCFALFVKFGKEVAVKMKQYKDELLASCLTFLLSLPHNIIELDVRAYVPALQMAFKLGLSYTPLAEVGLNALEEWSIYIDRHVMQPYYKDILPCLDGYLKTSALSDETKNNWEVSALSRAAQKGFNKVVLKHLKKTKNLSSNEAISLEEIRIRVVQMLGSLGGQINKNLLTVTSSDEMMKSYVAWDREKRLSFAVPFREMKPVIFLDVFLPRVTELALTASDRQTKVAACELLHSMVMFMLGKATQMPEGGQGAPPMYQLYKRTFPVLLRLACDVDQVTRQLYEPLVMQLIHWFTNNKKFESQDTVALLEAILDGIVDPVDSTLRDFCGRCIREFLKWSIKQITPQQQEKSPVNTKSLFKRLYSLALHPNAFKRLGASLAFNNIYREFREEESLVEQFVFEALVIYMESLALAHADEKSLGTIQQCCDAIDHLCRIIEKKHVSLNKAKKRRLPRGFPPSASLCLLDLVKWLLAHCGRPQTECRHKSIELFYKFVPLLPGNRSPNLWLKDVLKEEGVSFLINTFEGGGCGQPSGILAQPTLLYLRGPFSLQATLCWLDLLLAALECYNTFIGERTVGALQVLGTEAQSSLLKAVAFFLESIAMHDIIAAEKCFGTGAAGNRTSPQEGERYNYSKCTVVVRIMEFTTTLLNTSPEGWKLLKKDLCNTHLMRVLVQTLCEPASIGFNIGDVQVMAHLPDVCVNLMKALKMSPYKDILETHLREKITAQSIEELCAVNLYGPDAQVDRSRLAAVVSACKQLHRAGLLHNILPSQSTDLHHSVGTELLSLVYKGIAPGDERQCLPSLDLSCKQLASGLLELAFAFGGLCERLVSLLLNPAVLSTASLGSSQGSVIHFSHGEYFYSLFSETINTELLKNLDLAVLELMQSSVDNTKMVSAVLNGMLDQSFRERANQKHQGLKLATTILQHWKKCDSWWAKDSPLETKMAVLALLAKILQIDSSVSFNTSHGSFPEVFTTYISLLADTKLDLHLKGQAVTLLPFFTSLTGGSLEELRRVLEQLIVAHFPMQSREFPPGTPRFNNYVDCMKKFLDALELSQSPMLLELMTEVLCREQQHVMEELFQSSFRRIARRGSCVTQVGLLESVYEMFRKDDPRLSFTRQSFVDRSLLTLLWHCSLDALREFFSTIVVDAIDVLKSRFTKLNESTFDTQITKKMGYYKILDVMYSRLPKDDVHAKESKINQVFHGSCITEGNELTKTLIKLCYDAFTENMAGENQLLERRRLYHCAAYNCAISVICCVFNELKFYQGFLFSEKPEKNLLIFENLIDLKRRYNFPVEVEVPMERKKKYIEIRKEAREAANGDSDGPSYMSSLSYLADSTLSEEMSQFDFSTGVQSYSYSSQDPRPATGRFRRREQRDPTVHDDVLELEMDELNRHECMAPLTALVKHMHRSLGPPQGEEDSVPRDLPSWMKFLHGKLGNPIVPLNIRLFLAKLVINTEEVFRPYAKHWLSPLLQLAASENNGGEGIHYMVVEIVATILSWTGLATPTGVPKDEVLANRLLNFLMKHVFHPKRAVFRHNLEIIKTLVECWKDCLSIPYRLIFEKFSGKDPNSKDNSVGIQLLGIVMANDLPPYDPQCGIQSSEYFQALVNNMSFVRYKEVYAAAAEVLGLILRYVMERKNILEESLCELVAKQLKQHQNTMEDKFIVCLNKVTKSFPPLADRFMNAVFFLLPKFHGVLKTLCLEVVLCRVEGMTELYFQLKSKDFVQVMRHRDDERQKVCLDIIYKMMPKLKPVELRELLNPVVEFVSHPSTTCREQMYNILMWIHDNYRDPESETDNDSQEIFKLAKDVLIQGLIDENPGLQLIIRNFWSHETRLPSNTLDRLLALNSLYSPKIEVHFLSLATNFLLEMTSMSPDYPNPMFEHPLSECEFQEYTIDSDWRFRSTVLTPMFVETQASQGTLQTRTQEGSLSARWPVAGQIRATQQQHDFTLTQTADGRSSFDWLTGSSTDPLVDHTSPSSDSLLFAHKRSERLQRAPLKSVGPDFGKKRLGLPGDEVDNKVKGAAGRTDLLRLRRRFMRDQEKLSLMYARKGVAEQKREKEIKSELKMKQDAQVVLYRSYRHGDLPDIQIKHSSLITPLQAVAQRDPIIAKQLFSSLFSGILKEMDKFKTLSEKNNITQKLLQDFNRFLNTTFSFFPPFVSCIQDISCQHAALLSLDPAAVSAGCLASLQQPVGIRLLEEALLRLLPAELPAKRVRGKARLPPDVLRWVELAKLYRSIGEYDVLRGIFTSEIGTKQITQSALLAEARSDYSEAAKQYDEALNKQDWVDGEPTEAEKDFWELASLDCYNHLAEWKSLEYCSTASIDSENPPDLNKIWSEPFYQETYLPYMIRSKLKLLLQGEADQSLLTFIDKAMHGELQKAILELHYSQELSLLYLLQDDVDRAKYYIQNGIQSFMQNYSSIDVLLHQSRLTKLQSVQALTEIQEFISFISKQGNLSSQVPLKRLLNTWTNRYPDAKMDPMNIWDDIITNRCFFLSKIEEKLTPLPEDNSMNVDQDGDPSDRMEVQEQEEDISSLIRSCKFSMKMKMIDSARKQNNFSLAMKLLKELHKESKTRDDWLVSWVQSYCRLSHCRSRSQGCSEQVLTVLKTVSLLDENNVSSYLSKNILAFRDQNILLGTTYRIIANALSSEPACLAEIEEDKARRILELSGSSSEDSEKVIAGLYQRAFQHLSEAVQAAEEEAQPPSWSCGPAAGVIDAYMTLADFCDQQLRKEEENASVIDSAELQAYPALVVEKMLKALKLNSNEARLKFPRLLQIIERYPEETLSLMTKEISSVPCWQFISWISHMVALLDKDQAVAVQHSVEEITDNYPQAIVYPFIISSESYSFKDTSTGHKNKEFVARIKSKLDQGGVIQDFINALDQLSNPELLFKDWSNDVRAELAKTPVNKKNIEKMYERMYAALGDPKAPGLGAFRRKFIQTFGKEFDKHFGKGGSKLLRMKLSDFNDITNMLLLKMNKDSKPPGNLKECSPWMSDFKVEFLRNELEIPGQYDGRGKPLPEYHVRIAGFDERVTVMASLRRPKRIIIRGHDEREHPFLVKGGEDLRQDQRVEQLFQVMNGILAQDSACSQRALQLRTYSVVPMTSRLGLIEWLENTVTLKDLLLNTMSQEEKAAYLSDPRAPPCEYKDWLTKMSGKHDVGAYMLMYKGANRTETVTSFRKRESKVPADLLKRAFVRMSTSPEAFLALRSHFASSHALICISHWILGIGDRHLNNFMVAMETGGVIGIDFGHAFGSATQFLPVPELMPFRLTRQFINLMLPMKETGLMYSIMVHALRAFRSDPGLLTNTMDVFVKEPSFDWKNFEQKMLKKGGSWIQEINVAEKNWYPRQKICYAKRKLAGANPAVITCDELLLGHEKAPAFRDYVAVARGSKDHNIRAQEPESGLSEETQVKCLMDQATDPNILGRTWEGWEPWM
- TEST NAME: Inhibition of DNA-PK
OUTCOME MEASURE: IC50 (µM)

                    molecule_smiles  reading
0  O=C(c1ccccc1)c1ccc(N2CCOCC2)cc1O     0.27
